Reference source for all entries: ChEMBL document CHEMBL4295262

test: Electrical activity assay on cell lines treated with a given drug. DMSO was used as a vehicle and a control, unblinded dofetilide was used as a control.; assay type: cell-based; set-up: unit not given here; details: human, ipsc-cm, 0.1 µM; concentration (um) 0.1 uM
So basically: is APDc under 50? Then class 1. Not under? Then class 0.

Consider the worked cases shown below.
COc1cc(N)c(Cl)cc1C(=O)NC1CCN(CCCOc2ccc(F)cc2)CC1OC (stereo unspecified) [CISAPRIDE] ... class 0
CC[C@H]1OC(=O)[C@H](C)[C@@H](O[C@H]2C[C@@](C)(OC)[C@@H](O)[C@H](C)O2)[C@H](C)[C@@H](O[C@@H]2O[C@H](C)C[C@H](N(C)C)[C@H]2O)[C@](C)(OC)C[C@@H](C)C(=O)[C@H](C)[C@@H](O)[C@]1(C)O ... class 1
CN1CCN(CCCCN2C(=O)CN(/N=C/c3ccc(-c4ccc(Cl)cc4)o3)C2=O)CC1 [AZIMILIDE] ... class 1
COc1ccc(CCN2CCC(Nc3nc4ccccc4n3Cc3ccc(F)cc3)CC2)cc1 ... class 0

Now look at this entry.
Exercise: # TODO verify APDc < 50 strictly for this compound: CC(C)COCC(CN(Cc1ccccc1)c1ccccc1)N1CCCC1 (stereo unspecified)
Solution: class 1
